The reported numbers originate from patent US20240132603A1.

target: T1, human CCR8 (human, UniProt P51685 1-355); test: FACS, CHO-K1-hCCR8 cells
T1 construct: whole, on cells; construct used for the overexpressing cell lines is not described; also called hCCR8
T1 sequence (P51685 whole entry): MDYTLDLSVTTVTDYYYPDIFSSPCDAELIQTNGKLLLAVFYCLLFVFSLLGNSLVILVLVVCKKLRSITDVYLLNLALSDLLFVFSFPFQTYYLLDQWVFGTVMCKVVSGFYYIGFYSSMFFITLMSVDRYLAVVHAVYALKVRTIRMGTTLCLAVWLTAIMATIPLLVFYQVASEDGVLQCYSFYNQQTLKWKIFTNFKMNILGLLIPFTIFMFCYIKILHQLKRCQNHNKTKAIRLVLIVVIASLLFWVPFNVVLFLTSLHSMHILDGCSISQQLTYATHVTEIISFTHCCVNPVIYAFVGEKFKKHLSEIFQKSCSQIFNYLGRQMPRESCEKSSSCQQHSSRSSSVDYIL
readout-label: EC50 (nM)
Quick note: give the figure in nM, leave out the unit.

Tell me measured EC50 for PR004661 (antibody, human IgG1, kappa, V domains shown, PTM site-removed humanized variant of PR004128, IgG1 with DE mutation) VH: EVQLVESGGGLVQPGGSLRLSCAASGFTFSTYAMNWVRQAPGKGLEWVSRIRSKSNNYATYYADSVKDRFTISRDDSKSTLYLQMNSLRAEDTAVYYCVRGKEQGNYYAMDFWGQGTTVTVSS VL: DIVMTQSPLSLPVTPGEPASISCRSSKSLLHSNGKIYLYWFLQKPGQSPQLLIYRMSNLASGVPDRFSGSGSGTDFTLKISRVEAEDVGVYYCMQHLEYPLTFGQGTKLEIKR please.
0.456

Give recorded EC50. PR004664 (antibody, human IgG1, kappa, V domains shown, PTM site-removed humanized variant of PR004128, IgG1 with DE mutation) VH: EVQLVESGGGLVKPGGSLRLSCAASGFTFSTYAMNWVRQAPGKGLEWVGRIRSKSNNYATYYADSVKDRFTISRDDSKSTLYLQMNSLKTEDTAVYYCVRGKENANYYAMDFWGQGTTVTVSS VL: DIVMTQSPLSLPVTLGQPASISCRSSKSLLHSNGKIYLYWFQQRPGQSPRLLIYRMSNLASGVPDRFSGSGSGTDFTLKISRVEAEDVGVYYCMQHLEYPLTFGQGTKLEIKR
0.365

Using known records, supply EC50 for PR004663 (antibody, human IgG1, kappa, V domains shown, PTM site-removed humanized variant of PR004128, IgG1 with DE mutation) VH: EVQLVESGGGLVQPGGSLRLSCAASGFTFSTYAMNWVRQAPGKGLEWVSRIRSKSNNYATYYADSVKDRFTISRDDSKSTLYLQMNSLRAEDTAVYYCVRGKEQGNYYAMDFWGQGTTVTVSS VL: DIVMTQSPLSLPVTPGEPASISCRSSKSLLHSNAKIYLYWFLQKPGQSPQLLIYRMSNLASGVPDRFSGSGSGTDFTLKISRVEAEDVGVYYCMQHLEYPLTFGQGTKLEIKR
0.286

Supply measured EC50 of PR004660 (antibody, human IgG1, kappa, V domains shown, PTM site-removed humanized variant of PR004128, IgG1 with DE mutation) VH: EVQLVESGGGLVQPGGSLRLSCAASGFTFSTYAMNWVRQAPGKGLEWVSRIRSKSNNYATYYADSVKDRFTISRDDSKSTLYLQMNSLRAEDTAVYYCVRGKENANYYAMDFWGQGTTVTVSS VL: DIVMTQSPLSLPVTPGEPASISCRSSKSLLHSNGKIYLYWFLQKPGQSPQLLIYRMSNLASGVPDRFSGSGSGTDFTLKISRVEAEDVGVYYCMQHLEYPLTFGQGTKLEIKR in your reply.
0.49
